Tested on: K4 kissing-loop RNA reporter;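 also: bound reporter read as fluorescence of individual clusters on recovered sequencing chips by microscopy, with normalized cluster intensities fitted with a binding model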
Experiment: apparent KD of K4 kissing-loop reporter; higher = weaker reporter binding
Details: Eterna round: R107; input ligand: none

{"Monomer Sequence": "AUCGUUGUCUGAGGAUAUCGUUUAACUGUAGUGAUGUUACAGAAAAUUCAUAUUAUAUUUUCUAUUCGAGAAGGCAGACUACGUA [JR_ExcFMNB_Sub016]", "U": "nM", "apparent KD of K4 kissing-loop reporter": 135}
{"Monomer Sequence": "GCUAUGGUUGGAAGGAGCGUUGAAUUGUUAGUAAGAGUGAUGUUCGAUAGUGGACAGUUGUAGCAGGUAGGUCGCCAACUAUAGC [KL-Arg B28]", "U": "nM", "apparent KD of K4 kissing-loop reporter": 277}
{"Monomer Sequence": "GGAUUCACCAGUGAUGUUGGAGAAAACUCGAAGGAUAUGACGAAAGUCAGAAGGUCGUAGACUGGACAAAGUCCGGUCGGAUCCA [KL-SSFMN-A22]", "U": "nM", "apparent KD of K4 kissing-loop reporter": 299}
{"Monomer Sequence": "UUAUAUCUCUGACUUUCACUUUGCGUAUCUGAGGAUAUCUGAAUUCAGAGAAGGCAGUGAUGUUGCUUUGCUGUGUGUCUGAGAA [AK2 Exc FMN A]", "U": "nM", "apparent KD of K4 kissing-loop reporter": 526}
